Target: UniProt:P0AEK4
Sequence (P0AEK4 whole entry): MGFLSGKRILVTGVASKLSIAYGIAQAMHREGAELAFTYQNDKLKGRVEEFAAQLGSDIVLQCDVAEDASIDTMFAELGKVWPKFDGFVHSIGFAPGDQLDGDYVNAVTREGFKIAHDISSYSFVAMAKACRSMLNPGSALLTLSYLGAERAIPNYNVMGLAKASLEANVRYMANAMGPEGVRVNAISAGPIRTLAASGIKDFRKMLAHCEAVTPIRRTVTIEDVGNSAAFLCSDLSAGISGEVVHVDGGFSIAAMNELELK
pIC50: −log10 of the molar value.
Give Criterion met when the value for pIC50 is at least 6. Give Criterion not met when it is less.

Consider the worked cases shown below.
In [3]: df
Out[3]:
                                   compound  target_or_test_system  assigned_category
0              CCc1ccc(Oc2cc(C)ccc2N)c(O)c1         UniProt:P0AEK4  Criterion not met
1  CCc1ccc(Oc2ccc(N3CC(CNC(C)=O)OC3=O)cc2F)c(O)c1 (stereo unspecified)         UniProt:P0AEK4  Criterion not met
2           CC(C)Cc1ccc(Oc2cccc(F)n2)c(O)c1         UniProt:P0AEK4      Criterion met

Q: Does `CCc1ccc(Oc2ccc(/C(C)=N/OC)cc2F)c(O)c1` have a reported pIC50 of at least 6?
Result: Criterion not met

Q: Does `CCCNS(=O)(=O)c1ccc(Oc2ccc(CC)cc2O)c(F)c1` have a reported pIC50 of at least 6?
Result: Criterion met

====

Assay: Terminal elimination half life in Sprague-Dawley rat heart at 2 x 50 mg/kg, iv
Assay type: ADME, organism-based
Design: dose 50 mg/kg, route intravenous
Details: read-out: beta t1/2 (converted)
quantity_measured: half-life (h)
Quick reminder: number only, in h, skip the unit.

Q: Find the recorded half-life belonging to `CCc1cc(O)c(Oc2ccc(C(N)=O)cc2F)cc1F` and report it.
Result: 5

====

Assay: Cmax in Sprague-Dawley rat kidney at 2 x 50 mg/kg, iv
Assay type: ADME, organism-based
Set-up: dose 50 mg/kg, route intravenous
quantity_measured: Cmax (ng/g)
Quick reminder: number only, in ng/g, skip the unit.

Q: Find the recorded Cmax belonging to `CCc1cc(O)c(Oc2ccc(C(N)=O)cc2F)cc1F` and report it.
Result: 63000

====

Test: Cmax in Sprague-Dawley rat heart at 2 x 50 mg/kg, iv
Format: ADME, organism-based
Parameters: dose 50 mg/kg, route intravenous
quantity_measured: Cmax

Q: Find the recorded Cmax belonging to `CCc1cc(O)c(Oc2ccc(C(N)=O)cc2F)cc1F` and report it.
Result: 42100 ng/g

====

Assay: Toxicity in iv dosed rat
Type: organism-based
Conditions: in vivo
quantity_measured: MTD

Q: Find the recorded MTD belonging to `CCc1cc(O)c(Oc2ccc(C(N)=O)cc2F)cc1F` and report it.
Result: > 200 mg/kg

====

System: Escherichia coli
Test: Antibacterial activity against Escherichia coli C7 after 18 hrs by broth microdilution method
Format: functional
Details: C7, 18 h
MIC strictly less than 4 µg/mL = 1.0. Otherwise 0.0.

Consider the worked cases shown below.
>>> print(df.to_string())
                                   compound  assigned_category
0  CCc1ccc(Oc2ccc(S(=O)(=O)NCCO)cc2F)c(O)c1                0.0
1        CCc1cc(O)c(Oc2ccc(C(N)=O)cc2F)cc1F                1.0
2         Oc1cc(C(F)=C(F)F)ccc1Oc1cccc(F)n1                0.0
3         Oc1cc(CCCn2cncn2)ccc1Oc1cccc(F)n1                0.0
4  CCc1ccc(Oc2ccc(NS(=O)(=O)C3CC3)cc2F)c(O)c1                0.0

Q: Please determine if `CCc1cc(O)c(Oc2ccc[nH]c2=O)cc1F` is below 4 µg/mL in terms of MIC.
Result: 0.0

Q: Please determine if `OCc1ccc(Oc2cccc(F)n2)c(O)c1` is below 4 µg/mL in terms of MIC.
Result: 0.0

Reference for the values: ChEMBL document CHEMBL2176870
